Each record here notes measured MIC.
Test system: Staphylococcus aureus ATCC 33591 (MRSA)
ASSAY_EXPLANATION: Antibacterial broth microdilution assay (MIC), MRSA ATCC 33591
Assay type: cell-based
PROTOCOL_CONDITIONS: Staphylococcus aureus; amount inhibiting >95% of growth (A600), 18 h; suffix 'I' = partial growth inhibition at the value, >95% at higher concentrations; read-out: MIC ATCC 33591
OUTCOME_MEASURE: MIC (µg/mL)

{"COMPOUND": "CCOC(=O)C1=C(CC)NC(N)=NC1c1ccc(CC(C)C)cc1 (centres unmarked)", "OUTCOME_MEASURE": "MIC", "VALUE_MODIFIER": "=", "OBSERVED_RESULT": 8}
{"COMPOUND": "CCOC(=O)C1=C(c2cccc(C(F)(F)F)c2)NC(N)=NC1c1ccc(CC(C)C)cc1 (centres unmarked)", "OUTCOME_MEASURE": "MIC", "VALUE_MODIFIER": "=", "OBSERVED_RESULT": 2}
{"COMPOUND": "CCOC(=O)C1=C(c2ccccc2)NC(N)=NC1c1c(C)cccc1C (centres unmarked)", "OUTCOME_MEASURE": "MIC", "VALUE_MODIFIER": "=", "OBSERVED_RESULT": 64}
{"COMPOUND": "CCOC(=O)C1=C(c2cccc(F)c2)NC(N)=NC1c1cc(Cl)cc(Cl)c1 (centres unmarked)", "OUTCOME_MEASURE": "MIC", "VALUE_MODIFIER": "=", "OBSERVED_RESULT": 8}
{"COMPOUND": "CCOC(=O)C1=C(c2ccccc2)NC(N)=NC1c1ccc(C)cc1 (centres unmarked)", "OUTCOME_MEASURE": "MIC", "VALUE_MODIFIER": ">", "OBSERVED_RESULT": 64}

Every entry's value here was drawn from paper PMC11247627.
